System: MDA-MB-468 breast
Assay: NCI tumour cell line growth inhibition, 48 h; in the data active = GI50 below about 0.43 µM; inactive = the rest
Write down the outcome that applies. Available outcomes: active, inactive

Example entries and their recorded answers appear below.
• C#CC#CC#CC#CC#CC#CC#CC#CCC1OCC(COC(=O)O[C@@H](C(=O)O[C@H]2C[C@@]3(O)[C@@H](OC(=O)c4ccccc4)[C@@H]4[C@]5(OC(C)=O)CO[C@@H]5C[C@H](O)[C@@]4(C)C(=O)[C@H](OC(C)=O)C(=C2C)C3(C)C)[C@@H](NC(=O)c2ccccc2)c2ccccc2)O1 (stereo not given in full) = active
• COc1cccc(-c2c[nH]c3c(N/N=C/c4ccncc4)ncnc23)c1 = inactive
• O=C1c2c(c3c4cc(Br)ccc4[nH]c3c3ccc4ccccc4c23)C(=O)N1CCN1CCNCC1 = inactive
• [Cl][Sn]([c]1ccccc1)([c]1ccccc1)[c]1ccccc1 = active

Here's the next entry for you.
Lookup: Give the logged outcome of this assay for the following molecule: CN1CCN(C(=O)C(C)(C)c2ccc(C(=O)Nc3cn4cc(-c5ccncc5)ccc4n3)cc2)CC1
Found: active

====

Test system: MDA-MB-468 breast
Assay: NCI tumour cell line growth inhibition, 48 h
Hi there, I'd appreciate the recorded log10 of TGI for every entry that follows.
Scale: log10; quantity: TGI; unit before log: µM

• CN(C)CCOc1ccc(C(=O)C2[C@H](c3ccc(Cl)cc3)[C@@H](c3ccccc3)NC23C(=O)Nc2ccc(Br)cc23)cc1 (stereo not given in full) = 0.67
• CN(C)CCN1C(=O)c2c(c3c4ccccc4n4c3c3c2c2ccccc2n3C2CC(O)C(O)C4(C)O2)C1=O (stereo not given) = 0.75
• CN1CCN(C(=O)Oc2cc3c(c4ccccc24)[C@H](CCl)CN3C(=O)c2cc3cc(OCCCN4CCC4)ccc3[nH]2)[C@@H]2CSSC[C@H]21 = -2.10
• Nc1ncnc2c1N=C(c1ccc3c(c1)OCO3)CC(c1ccc([N+](=O)[O-])cc1)N2 (stereo not given) = 1.78
• C#CC#CC#CC#CC#CC#CC#CC#CCC1OCC(COC(=O)O[C@@H](C(=O)O[C@H]2C[C@@]3(O)[C@@H](OC(=O)c4ccccc4)[C@@H]4[C@]5(OC(C)=O)CO[C@@H]5C[C@H](O)[C@@]4(C)C(=O)[C@H](OC(C)=O)C(=C2C)C3(C)C)[C@@H](NC(=O)c2ccccc2)c2ccccc2)O1 (stereo not given in full) = -0.37

For every record below, what is its log10 of TGI?
1. COc1cccc(-c2c[nH]c3c(N/N=C/c4ccncc4)ncnc23)c1
2. Cc1cc(F)ccc1S(=O)(=O)Nc1cc(-c2c(O)ccc3ccccc23)c(O)c2ccccc12

Found:
1. 0.59
2. 0.57

====

Tested on: HOP-92 NSCLC
Experiment: NCI tumour cell line growth inhibition, 48 h; in the data active = GI50 below about 0.43 µM; inactive = the rest
Write down the outcome that applies. Available outcomes: active, inactive

* CN(C)c1nc(NCCNS(=O)(=O)c2ccc(C(=O)/C=C/c3ccccc3)cc2)nc(N2CCOCC2)n1 | inactive
* O=C1NC(=S)S/C1=C\c1cn(-c2ccccc2)nc1-c1ccc([N+](=O)[O-])cc1 | inactive
* CN(C)CCOc1ccc(C(=O)C2[C@H](c3ccc(Cl)cc3)[C@@H](c3ccccc3)NC23C(=O)Nc2ccc(Br)cc23)cc1 (some centres undefined) | inactive

Here's the next entry for you.
Lookup: Give the logged outcome of this assay for the following compound: CN1CCN(C(=O)Oc2cc3c(c4ccccc24)[C@H](CCl)CN3C(=O)c2cc3cc(OCCCN4CCC4)ccc3[nH]2)[C@@H]2CSSC[C@H]21
Found: active
